The entries below pair compounds with IC50 values for Cytochrome P450 3A4 (Homo sapiens, UniProt P08684), as found in several publications.

CS(=O)(=O)c1ccc2c(c1)CCC1(CCCN(C(=O)N[C@H]3C[C@@H]3c3ccccc3)CC1)O2 (relative stereo) ... > 10 µM
CCNC(=O)C1CCN(Cc2cccc(Oc3ccccc3)c2)CC1 ... > 10 µM
O=C(O)c1ccc2c(C(=O)c3ccccc3)cc(C(=O)c3ccccc3)c-2cc1 ... > 50 µM

// below: IC50 requested for another compound
Query: Item under review: CNC(=O)[C@@]12C[C@@H]1[C@@H](n1cnc3c(NC)nc(C#Cc4ccc(Br)s4)nc31)[C@H](O)[C@@H]2O . Reported IC50?
Reply: > 7 µM
